For each record, write down the corresponding pKd.
# Assay Target: CXCL6
# Method Description: BLI
Scale explanation: pKd corresponds to minus log10 of a concentration expressed in moles per litre.

Ask | Param item = P1100_IXORI (other) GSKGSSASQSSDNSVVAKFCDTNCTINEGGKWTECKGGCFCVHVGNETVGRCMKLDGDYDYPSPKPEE ; retrieve measured pKd.
Reply | 7.82

Ask | Param item = P1124_IXORI (other) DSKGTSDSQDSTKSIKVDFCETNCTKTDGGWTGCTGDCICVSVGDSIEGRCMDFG ; retrieve measured pKd.
Reply | 6.64

Ask | Param item = P458_IXORI (other) GSKQPGAAGSSSDSVEAVFCPTNCTKGTNGAWSGCSDDCICVHVGENTEGSCMKFSGDYDYPTPEA ; retrieve measured pKd.
Reply | 8.30

Ask | Param item = P1080_IXORI (other) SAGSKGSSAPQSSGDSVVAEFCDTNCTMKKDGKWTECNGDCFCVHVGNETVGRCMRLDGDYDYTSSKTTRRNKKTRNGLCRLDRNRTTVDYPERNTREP ; retrieve measured pKd.
Reply | 7.96

Ask | Param item = P1142_AMBCA (other) KPQILQRTDHSTDSDWDPQMCPETCNPSKNISCSSECLCVTLGGGDETGTCFNMSGVDWLGHAQASDGHNDG ; retrieve measured pKd.
Reply | 8.20
